# System: SK-MEL-5 melanoma
# procedureSummary: NCI tumour cell line growth inhibition, 48 h
Recorded TGI values for a group of compounds are listed next.
attributeMeasured: TGI

CC1(n2nc(-c3ccccc3)n(-c3ccccc3)c2=O)CSC1 ... > 100 µM
COc1cc[nH]c1/C=C1\C(=O)Nc2ccccc21 ... > 25 µM
CC(=O)OCC(OC(C)=O)C1C[C@H]2O[C@@H]3[C@H](C[C@H]2O1)O[C@@]1(C[C@@H]3C)C[C@H](C)[C@@H]2O[C@]3(C[C@@H]2O1)C[C@H]1O[C@H]2[C@H](C)[C@H]4OC(=O)C[C@H]5CC[C@@H]6OC7[C@H]8O[C@]9(CC[C@H]%10CC(=O)[C@H](CC[C@H]%11C[C@@H](C)C(=O)C(C[C@@H]4O[C@H]2C[C@H]1O3)O%11)O%10)CC8O[C@@H]7[C@@H](O9)[C@H]6O5 (stereo partly drawn) ... > 1 µM

---

Measured TGI, listed per entry.
# Test system: SK-OV-3 ovarian
# procedureSummary: NCI tumour cell line growth inhibition, 48 h
attributeMeasured: TGI

CC1=NN(c2ccccc2)C2(C1)C(Cl)C(=O)N2c1nc2ccccc2s1 (configuration not stated) ... > 100 µM
Cc1ccc(N(C(=O)CC(=O)NN)C(=O)c2ccccc2Cl)cc1 ... > 100 µM
O=C(N/N=C/c1cccc(O)c1O)c1ccccc1 ... > 100 µM
CN(C)CCCn1c2c(c3ccccc3c1=O)C(=O)c1ccccc1-2 ... 73.8 µM
O=c1cccccc1NCCCNc1cccccc1=O ... > 100 µM
COC(=O)Nc1nc2ccc(Oc3ccc(NC(=O)Nc4ccccc4)cc3)cc2[nH]1 ... 0.3 µM
NCCCC[C@@H]1NC(=O)[C@H]2CCCN2C(=O)[C@H](Cc2ccccc2)NC(=O)[C@H](Cc2ccccc2)CNC1=O ... > 100 µM
CC(C)N(C(=O)C12CC3CC(CC(C3)C1)C2)C(C)C ... > 50 µM
N#Cc1nc(C2OC(COC(=O)c3ccccc3)C(OC(=O)c3ccccc3)C2OC(=O)c2ccccc2)oc1N (configuration not stated) ... > 100 µM
COc1ccc(C(=O)COc2cccc(/C=C3\COc4ccc5ccccc5c4C3=O)c2)cc1 ... > 100 µM
CCS(=O)(=O)c1ccc(OC)c(Nc2ncc(-c3cccc(C(C)=O)c3)o2)c1 ... > 25 µM
CCC1CN2CCc3cc(OC)c(OC)cc3C2CC1CC1c2cc(OC)c(OC)cc2CCN1C(=O)C(N)Cc1ccccc1 (configuration not stated) ... 17.8 µM
O=C(CCl)Nc1ccc(Cl)cc1 ... 23 µM
CCOC(=O)C1(CO)CSCCSC1 ... > 100 µM
C=CCCCCCCCCC(=O)NS(=O)(=O)c1ccccc1 ... > 100 µM
O=C1CC(Br)c2c(Br)sc(Br)c21 (configuration not stated) ... 55.9 µM
N=C1C(=N)c2ccccc2-c2ccccc21.[Cl-].[Ru+2].c1cnc2c(c1)ccc1cccnc12.c1cnc2c(c1)ccc1cccnc12 ... > 100 µM

---

# System: SK-MEL-5 melanoma
# procedureSummary: NCI tumour cell line growth inhibition, 48 h; in the data active means GI50 below about 0.43 µM; inactive means the rest
Outcome codes: active, inactive

CCC1(O)C(=O)OCc2c1cc1n(c2=O)Cc2cc3ccc(C=O)cc3nc2-1 (centres undefined) ... inactive
COc1ccc2c(c1)C(=O)c1c-2n(CCCn2ccnc2)c(=O)c2ccccc12 ... active
O=C(N/N=C/c1cccc(O)c1O)c1ccccc1 ... inactive
Clc1nc(Cl)c2ncn(Cc3cccc(COc4cccc(OCc5cccc(Cn6cnc7c(Cl)nc(Cl)nc76)c5)c4)c3)c2n1 ... inactive

---

// TGI lookup, one value per entry
# Tested on: SK-OV-3 ovarian
# procedureSummary: NCI tumour cell line growth inhibition, 48 h
attributeMeasured: TGI

NC(CSS(=O)(=O)O)=NC1CC2CCC1C2 (stereo not drawn) ... > 100 µM
CC(C)c1ccc(C(=O)Nc2sc3c(c2C(N)=O)CCC(=O)C3)cc1 ... 8.02 µM
Cc1c2c(cc3c1C(=O)C(=O)C([C@@H](C)CO)=C3O)C(C)(C)CCC2 ... > 100 µM
COc1ccc(C(=O)c2cc(C)c(OC)c(C)c2)c(OC)c1N(C(=O)C(Cl)Cl)C(=O)C(Cl)Cl ... > 100 µM
CC(C)OC(=O)c1ccc(NCC2=CC(=O)C=CC2=O)cc1 ... > 100 µM
Cc1ccc(C(=NN=C(N)N)c2ccc(C)cc2)cc1 ... 10.2 µM
Cc1ccc(Nc2nc3c(s2)C(=O)c2ccccc2C3=O)c(C)c1 ... 62.5 µM
O=C(CC(O)(C(F)(F)F)C(F)(F)F)C(c1ccccc1)C(O)(C(F)(F)F)C(F)(F)F (stereo not drawn) ... 88.8 µM
COC(=O)C1C2OC(C)(C)OC2CN1S(=O)(=O)c1ccc(C)cc1 (stereo not drawn) ... > 100 µM
CC(=O)c1c(-c2ccc(Cl)cc2)c(-c2ccc(Cl)cc2)n[nH]c1=O ... > 100 µM
CC(=O)OC1=NN=C2COC(c3ccccc3OC(C)=O)=NN2C1 ... > 50 µM
CCc1[nH]c(=O)nc(N)c1-c1ccc(N2CCCCC2)c([N+](=O)[O-])c1 ... > 100 µM
CC1=CC[C@H](C[C@H](C#CCCCC2OCCO2)O[Si](C(C)C)(C(C)C)C(C)C)C(=O)CC1 ... > 100 µM

---

Each item that follows carries a reported GI50.
# System: HOP-92 NSCLC
# procedureSummary: NCI tumour cell line growth inhibition, 48 h
attributeMeasured: GI50

CC(=O)OC1CC(O)C23COC(O)C1(C)C2CC(O)C1(C)C3C(=O)C(O)C2(C)C(c3ccoc3)CC3OC321 (stereo not drawn) ... 911 nM
NCCCC[C@@H]1NC(=O)[C@H]2CCCN2C(=O)[C@H](Cc2ccccc2)NC(=O)[C@H](Cc2ccccc2)CNC1=O ... 44100 nM
CCN(CC)CCN1CC(O)=C(c2nc(-c3ccc(Cl)cc3)cs2)C1=N ... 1490 nM
CN(C)CCOc1ccc(/C(=C(/CCCCCCCCCC[P+](c2ccccc2)(c2ccccc2)c2ccccc2)c2ccccc2)c2ccccc2)cc1 ... 29.7 nM
CCC#CC[C@H]1C/C=C2/C(=O)C=C[C@@H]2C/C=C\CCCC(=O)O1 ... 1940 nM
CC(C)c1ccc(C(=O)Nc2sc3c(c2C(N)=O)CCC(=O)C3)cc1 ... 1290 nM
O=C(Nc1ccc(Cl)cc1)c1cc(-c2ccc(F)cc2)c2sc(=O)[nH]c2n1 ... 204 nM
COc1ccc2c(c1)C(=O)c1c-2n(CCCn2ccnc2)c(=O)c2ccccc12 ... 1030 nM

---

# Test system: NCI-H226 lung
# procedureSummary: NCI tumour cell line growth inhibition, 48 h
Recorded measurements of TGI, one per entry
attributeMeasured: TGI

COc1cc[nH]c1/C=C1\C(=O)Nc2ccccc21 ... > 25 µM
CCS(=O)(=O)c1ccc(OC)c(Nc2ncc(-c3cccc(C(C)=O)c3)o2)c1 ... > 25 µM
CCC(C)C(=O)OC1C(=O)OC2CC3C(C)=CC(=O)C(O)C3(C)C3C4(O)OCC23C1C(C)C4O (centres undefined) ... < 0.031 µM
Cc1cccc2nc(-c3ccccc3)cc(=O)n12 ... > 100 µM

---

# Test system: SW-620 colon
# procedureSummary: NCI tumour cell line growth inhibition, 48 h
attributeMeasured: TGI

CC(C)=CCC/C(=C/CC/C(C)=C/CCc1ccoc1)C(=O)O ... > 100 µM
CC(=O)OCC(OC(C)=O)C1C[C@H]2O[C@@H]3[C@H](C[C@H]2O1)O[C@@]1(C[C@@H]3C)C[C@H](C)[C@@H]2O[C@]3(C[C@@H]2O1)C[C@H]1O[C@H]2[C@H](C)[C@H]4OC(=O)C[C@H]5CC[C@@H]6OC7[C@H]8O[C@]9(CC[C@H]%10CC(=O)[C@H](CC[C@H]%11C[C@@H](C)C(=O)C(C[C@@H]4O[C@H]2C[C@H]1O3)O%11)O%10)CC8O[C@@H]7[C@@H](O9)[C@H]6O5 (some centres undefined) ... > 1 µM
COc1cc(OC)c(/C=C/C(=O)c2c(OC)cccc2OC)c(OC)c1 ... > 32.6 µM
O=C(CSc1ncccn1)N/N=C/c1ccccc1OCc1ccccc1 ... > 100 µM

---

The reader will find reported TGI values listed item by item below.
# System: KM12 colon
# procedureSummary: NCI tumour cell line growth inhibition, 48 h
attributeMeasured: TGI

OCC1OC(NC(=S)NCCC(F)(F)C(F)(F)C(F)(F)C(F)(F)C(F)(F)C(F)(F)F)C(O)C(O)C1O (configuration not stated) ... > 100 µM
Nc1cc(Cl)cc2cc(Cl)cnc12 ... > 100 µM
O=C(O)CP(=S)(S)c1ccccc1 (configuration not stated) ... > 100 µM
NC1C/C(=N\O)c2c(Cl)sc(Cl)c21 (configuration not stated) ... 25.5 µM
COc1cc(C(=O)NNC(=O)c2cc(Br)ccc2NC(=O)c2cccs2)cc(OC)c1OC ... > 100 µM
CC1=NN(c2ccccc2)C2(C1)C(Cl)C(=O)N2c1nc2ccccc2s1 (configuration not stated) ... > 100 µM
N.N.N.N.N.O=C([O-])c1nn[n-]n1.[Cl-].[Co+3] ... > 100 µM
O=c1cccccc1NCCCNc1cccccc1=O ... > 100 µM
N=c1c2ccccc2nc2oc3cc([N+](=O)[O-])ccc3n12 ... > 100 µM
NCC(Cl)C(O)c1cnc(N)[nH]1 (configuration not stated) ... 2.96 µM
CC1=NN(c2cccc(S(=O)(=O)O)c2)C2(C1)C(Cl)C(=O)N2c1nc2ccccc2s1 (configuration not stated) ... 27.4 µM
CCC#CC[C@H]1C/C=C2/C(=O)C=C[C@@H]2C/C=C\CCCC(=O)O1 ... 2.16 µM
CC[O-].CC[O-].O=C1c2ccccc2C(=O)c2c(O)ccc([O-])c21.O=C1c2ccccc2C(=O)c2c(O)ccc([O-])c21.[Ti+4] ... > 100 µM
Cc1ccc(S(=O)(=O)NC(=O)NCc2ccc(S(N)(=O)=O)cc2)cc1 ... > 100 µM
CCCCCCCC(CC(=O)NC(CO)C(=O)NC(CO)CC(C)C)OC(=O)CC(CCCCCCC)OC(=O)CC(CCCCCCC)OC1OC(C)C(O)C(OC2OC(C)C(O)C(OC(C)=O)C2O)C1O (configuration not stated) ... 22.1 µM
COC(=O)C1C2OC(C)(C)OC2CN1S(=O)(=O)c1ccc(C)cc1 (configuration not stated) ... > 100 µM
Cc1ccc(-c2c(C#N)c(-c3ccccc3)n(NS(=O)(=O)c3ccc(C)cc3)c(=O)c2C#N)cc1 ... > 100 µM
COc1cc2c(/C=C3/C(=O)Nc4ccc(O)cc43)c(Cl)n(Cc3ccccc3)c2cc1C ... 1.35 µM
COc1ccc(C(C)c2cc3c(cc2OC)OCO3)cc1 (configuration not stated) ... > 41 µM
O=C1c2c(Br)sc(Br)c2C(NC(=O)C(F)(F)F)C1O (configuration not stated) ... 91.6 µM
Cc1[nH]c(=O)[nH]c(=O)c1/C=C/C(=O)NC(CO)CC(C)C (configuration not stated) ... > 375 µM
CC(C)=CCC/C(=C/CC/C(C)=C/CCc1ccoc1)C(=O)O ... > 100 µM
COc1ccc(-c2cn3ccsc3n2)cc1 ... > 100 µM
NC(CSS(=O)(=O)O)=NC1CC2CCC1C2 (configuration not stated) ... > 100 µM
CC(C)N(C(=O)C12CC3CC(CC(C3)C1)C2)C(C)C ... > 50 µM
CC(C)c1ccc(C(=O)Nc2sc3c(c2C(N)=O)CCC(=O)C3)cc1 ... 1.85 µM
Cc1cn(C2OC(CO[Si](C)(C)C(C)(C)C)/C(=C\C#N)C2O[Si](C)(C)C(C)(C)C)c(=O)[nH]c1=O (configuration not stated) ... > 100 µM

Values were extracted from PubChem BioAssay (NCI).
